We begin with a simple list: items and their reported Population Mitochondria Different-Phenotype (%).
- Test system: Fibroblast
- assay.method.text: Multiplex assay against human fibroblast
- Type: toxicity, cell-based
- conditions.used: 48 h, 1 µM, compound concentration 1 uM, replicate 1
Answer in %, number only, no unit symbol.

Worked set:
State the recorded Population Mitochondria Different-Phenotype (%) for this entry: CC(C)NCC(O)COc1ccc(CCOCC2CC2)cc1.Cl (stereo not drawn) [BETAXOLOL HYDROCHLORIDE]
4

Please do the same for CN(C)C(=O)/C(C#N)=C/c1ccc(-c2nc3cnc4[nH]ccc4c3n2C2CCCCC2)o1 as well.
8

Further, for OC1(c2ccc(Cl)cc2)CCN(Cc2c[nH]c3ccccc23)CC1 ?
0

Then what about the molecule Cc1csc2c(N[C@@H](C)CN3CCN(S(=O)(=O)c4ccc(Cl)c(Cl)c4)CC3)ncnc12 ?
17

What do you have for CN1CCN(c2ccc(OC(F)(F)F)c(Nc3ncc4c(n3)-c3c(c(C(N)=O)nn3CCO)CC4)c2)CC1 ?
6

***
Name the recorded Population Mitochondria Different-Phenotype (%) for O=C1NCN(c2ccccc2)C12CCN(CCCOc1ccc(F)cc1)CC2 [SPIRAMIDE] .
5

Input CN(C)CC#Cc1ccc(OCCCc2sc(N3CCc4cccc(C(=O)Nc5nc6ccccc6s5)c4C3)nc2C(=O)O)c(F)c1
3

Item: CN1CCN(CCOc2cc(OC3CCOCC3)c3c(Nc4c(Cl)ccc5c4OCO5)ncnc3c2)CC1
2
